- PROTOCOL_DESCRIPTION: Henry solubility constant Hcp at 298.15 K (mol/(m3 Pa))
- EXPERIMENTAL_PARAMETERS: reference: Zhang and Pawliszyn (1993)
Could you label it true (1) if measured Henry solubility constant Hcp is 0.1 or higher, and false (0) otherwise?

molecule="Cc1ccccc1C [1,2-dimethylbenzene]" label="false (0)"
molecule="c1cc2c3c(cccc3c1)CC2 [acenaphthene]" label="true (1)"
molecule="CCc1ccccc1 [ethylbenzene]" label="false (0)"
molecule="Cc1ccc(C)cc1 [1,4-dimethylbenzene]" label="false (0)"
molecule="c1ccc2ccccc2c1 [naphthalene]" label="false (0)"

input: Does c1ccc2cc3ccccc3cc2c1 [anthracene] have a reported Henry solubility constant Hcp of at least 0.1?
output: true (1)

input: Textbook exercise: given the entry c1ccccc1 [benzene] , state whether its Henry solubility constant Hcp is greater than or equal to 0.1.
output: false (0)

input: # check: Henry solubility constant Hcp of c1ccc2c(c1)ccc1c3ccccc3ccc21 [chrysene] is greater than or equal to 0.1
output: true (1)

input: Given c1ccc2c(c1)ccc1ccccc12 [phenanthrene] , state whether its Henry solubility constant Hcp is at least 0.1.
output: true (1)

input: Is Henry solubility constant Hcp at least 0.1? Consider Cc1ccccc1 [methylbenzene]
output: false (0)
